Biological target: cynomolgus IL-36R on BaF/3 cells (cynomolgus)
Experiment: cell-based or functional assay
# IC90 pNFκB, trun-IL-36a, BaF/3 cynomolgus IL-36R cells annotations
Form entry: value (nM) — number only.

// known answers, use as guide
[
  {
    "binder": "Mouse 73C5 (antibody 73C5) (antibody, V domains shown) VH: QVQLKESGPGLVAPSQSLSITCTVSGFSLTNYAVHWVRQFPGKGLEWLGVIWSDGSTDFNAPFKSRLSINKDNSKSQVFFKMNSLQIDDTAIYYCARKGGYSGSWFAYWGQGTLVTVSA VL: DIVMTQSQKFLSTSVGVRVSVTCKASQDVGTNVLWYQQKIGQSPKPLIYSASYRHSGVPDRFTGSGSGTDFTLIISNVQSEDLAEYFCQQYSRYPLTFGPGTKLELK",
    "readout_number": 0.2
  },
  {
    "binder": "Mouse 81A1 (antibody 81A1) (antibody, V domains shown) VH: QVQLKESGPGLVAPSQSLFITCTVSGFSLSSYEINWVRQVPGKGLEWLGVIWTGITTNYNSALISRLSISKDNSKSLVFLKMNSLQTDDTAIYYCARGTGTGFYYAMDYWGQGTSVTVSS VL: DIQMTQTTSSLSASLGDRVTISCRASQDIYKYLNWYQQKPDGTLKLLIYYTSGLHSGVPSRFSGSGSGTDFSLTISNLEPEDIATYFCQQDSKFPWTFGGDTKLEIK",
    "readout_number": 0.6
  }
]

# context switch: different binder, same IC90 pNFκB, trun-IL-36a, BaF/3 cynomolgus IL-36R cells
Query: Item Mouse 73F6 (antibody 73F6) (antibody, V domains shown) VH: QVQLKESGPGLVAPSQSLSITCTVSGFSLTNYAVHWVRQFPGKGLEWLGVIWSDGSTDYNAPFKSRLSINKDNSKSQVFFKMNSLQTDDTAIYYCARKGGYSGSWFAYWGQGTLVTVSA VL: DIVMTQSQKFLSTSVGVRVSVTCKASQDVGTNVLWYQQKIGQSPKALIYSASYRHSGVPDRFTGSGSGTDFTLIITNVQSEDLAEYFCQQYSRYPLTFGPGTKLELK has what recorded IC90 pNFκB, trun-IL-36a, BaF/3 cynomolgus IL-36R cells?
Result: 0.5

Where do the numbers come from? From patent US20240409648A1.
